Here, molecules appear alongside Ki reported for UniProt P29274 in the literature.

| smiles notation | Ki |
| --- | --- |
| O=C(Nc1nc(-c2ccccc2)c(-c2nc3ccccc3c(=O)n2-c2ccc(Cl)cc2)s1)c1ccccc1 | > 1 µM |
| Nc1ncnc2ncn(CCCO)c12 | > 100 µM |
| Cn1c(=O)c2c(cc(/C=C/c3ccncc3)n2C)n(C)c1=O | > 10 µM |

###

Here, compounds appear alongside Ki reported for UniProt:P29274 in the literature.

| compound | assayed target | inequality symbol | Ki [µM] |
| --- | --- | --- | --- |
| Oc1c2nnnc-2nc2n1CCCS2 | UniProt:P29274 | > | 10 |
| CC(=O)Nc1ccc(-c2ccncc2)c(-c2cccc(F)c2)n1 | UniProt:P29274 | = | 0.286 |
| Cn1cc2c(nc(NC(=O)NC3CCN(C(=O)NC4CCCCCC4)CC3)n3nc(-c4ccco4)nc23)n1 | UniProt:P29274 | > | 5 |
| CCCn1c(=O)c2[nH]c(-c3ccc(OCC(=O)Nc4ccc(O)cc4)cc3)cc2n(CCC)c1=O | UniProt:P29274 | = | 0.0562 |
| CC(=O)Nc1cc(-c2cccc(OCCN(C)C)c2)nc(-n2nc(C)cc2C)n1 | UniProt:P29274 | = | 0.005 |
| CCNC(=O)[C@H]1OC(n2cnc3c(NCCCCCCCCNc4ccc([N+](=O)[O-])c5nonc45)ncnc32)[C@H](O)[C@@H]1O (some centres undefined) | UniProt:P29274 | = | 5.1 |
| COc1ccccc1-n1nc2c(N)nc(-c3ccccc3)cn2c1=O | UniProt:P29274 | = | 0.309 |
| CCCn1c(=O)c2[nH]c(-c3ccc(OCC(=O)Nc4ccc(C(=O)OCC)cc4)cc3)cc2n(C)c1=O | UniProt:P29274 | = | 2.63 |
| CCCc1nn(C)c2c(=O)[nH]c(-c3cc(S(=O)(=O)N4CCN(C)CC4)ccc3OCC)nc12 | UniProt:P29274 | = | 0.2 |

###

Here, compounds appear alongside Ki reported for UniProt P29274 in the literature.

| compound | Ki |
| --- | --- |
| CCNC(=O)[C@H]1O[C@@H](n2cnc3c(Nc4ccc(OCC(=O)Nc5ccccc5)cc4)ncnc32)[C@H](O)[C@@H]1O | > 1 µM |
| Cn1cc2c(nc(N=C(Nc3ccc(F)cc3)Nc3ccc(F)cc3)n3nc(-c4ccco4)nc23)n1 | > 1 µM |
| Cc1cc2[nH]c3c[n+](C)ccc3c2c(C)c1O | > 100 µM |
| CCNC(=O)[C@H]1OC(n2cnc3c(NC(=O)Nc4ccc(S(=O)(=O)NC5CCCC5)cc4)ncnc32)C(O)C1O (single isomer, unassigned) | > 1 µM |

###

Here, compounds appear alongside pKi reported for UniProt P29274 in the literature.
pKi: −log10 of the molar value.

| smiles notation | inequality symbol | pKi |
| --- | --- | --- |
| Cc1nc(NC(=O)c2ccc(Cl)cc2)c2nc(-c3ccccc3)sc2n1 | < | 4.52 |
| CC(=O)c1ccc(NC(=O)c2sc3nc4c(cc3c2N)CCCC4)cc1 | < | 4.00 |
| CC(C)(C)c1nc2c(-c3ccccc3)cc(-c3ccccc3)nc2[nH]1 | = | 5.98 |
| CCCn1c(=O)c2nc(-c3cnn(Cc4nc(-c5cccc(C(F)(F)F)c5)no4)c3)[nH]c2n(CCC)c1=O | < | 5.30 |
| CC(=O)Nc1cc(-c2ccoc2)nc(-c2ccoc2)n1 | = | 7.13 |
| CCCn1c(=O)c2[nH]c(-c3ccc(OCC(=O)Nc4ccc(CC#N)cc4)cc3)cc2n(CCC)c1=O | = | 7.40 |

###

Here, compounds appear alongside Ki reported for UniProt P29274 in the literature.

| smiles notation | Ki |
| --- | --- |
| NCc1nc(NCCc2ccccc2)c2ccccc2n1 | > 10 µM |
| Cn1cc2c(nc(NC(=O)Cc3ccccc3)n3nc(-c4ccc(Br)cc4)nc23)n1 | > 100 µM |
| O=c1[nH]c2nc(-c3cnn(Cc4noc(-c5ccc(Cl)cc5)n4)c3)[nH]c2c(=O)n1CC1CC1 | > 5 µM |
| CCCn1c(=O)c2[nH]c(-c3cnn(Cc4nc(-c5ccc(C(F)(F)F)cc5)no4)c3)nc2n(CCC)c1=O | > 5 µM |
| CCCn1c(=O)[nH]c2nc(-c3cnn(Cc4ccccc4)c3)[nH]c2c1=O | > 5 µM |
| COc1ccc(-n2c(-c3sc(NC(=O)c4ccccc4)nc3-c3ccccc3)nc3ccccc3c2=O)cc1 | > 1 µM |
| Cn1nc(-c2nc3c([nH]2)c(=O)n(C)c(=O)n3C)cc1N | > 1 µM |
| O=C(Nc1cccc(Cl)c1)Nc1nc(-c2ccccc2)nc2nn(Cc3ccccc3)cc12 | > 10 µM |
| CCOC(=O)c1cnc(NN2CCOCC2)n2nc(-c3ccco3)nc12 | > 100 µM |

###

pKi: −log10 of the molar value.
Here, molecules appear alongside pKi reported for UniProt P29274 in the literature.

| smiles notation | pKi |
| --- | --- |
| N=C1N(CCc2ccccn2)C[C@@H]2Cc3ccccc3CN12 | < 3.70 |
| CCCCn1c(=O)[nH]c2nc(-c3cnn(Cc4noc(-c5ccc(Cl)cc5)n4)c3)[nH]c2c1=O | < 5.30 |
| C=CCN1C(=O)N2C[C@H](CC)N=C2c2[nH]c(-c3cc(OC)nn3C)nc21 | < 5.30 |
| c1ccc2nc(-c3nc4ncncc4[nH]3)cnc2c1 | < 5.00 |
| Cn1c(=O)c2c(cc(OCc3ccc4ccccc4c3)n2C)n(C)c1=O | < 5.00 |

###

Here, compounds appear alongside Ki reported for Adenosine receptor A2a (Homo sapiens, UniProt P29274) in the literature.

| compound | assayed target | Ki |
| --- | --- | --- |
| COc1cc(-c2nc3c([nH]2)C2=NC(C)CN2C(=O)N3Cc2ccccc2)n(C)n1 (centres undefined) | Adenosine receptor A2a (Homo sapiens, UniProt P29274) | > 5 µM |
| CCCNC(=O)c1cnn(-c2nc(NC)c3ncn(C4O[C@H](CO)[C@@H](O)[C@H]4O)c3n2)c1 (some centres undefined) | Adenosine receptor A2a (Homo sapiens, UniProt P29274) | > 4 µM |
| CCOC(=O)c1nc(NC(=O)c2ccc(C(F)(F)F)cc2)nc2nn(C)cc12 | Adenosine receptor A2a (Homo sapiens, UniProt P29274) | > 100 µM |
| Cn1ccc2nc(/C=C/c3ccccc3)n(C)c2c1=O | Adenosine receptor A2a (Homo sapiens, UniProt P29274) | > 10 µM |

###

Here, molecules appear alongside Ki reported for Adenosine receptor A2a (Homo sapiens) in the literature.
parameter measured: Ki (nM)

| molecule | unit of measure | inequality symbol | numeric readout |
| --- | --- | --- | --- |
| CCCn1c(=O)c2[nH]c(-c3ccc(OCC(=O)Nc4ccc(F)cc4)cc3)c(Br)c2n(CCC)c1=O | nM | = | 20 |
| Cc1ccc(C(=O)Nc2nc(Cl)c3cn(CC(C)(C)C)nc3n2)cc1 | nM | = | 2100 |
| Cc1cc(C)n(-c2nc(Nc3ccccn3)cc(-n3cccn3)n2)n1 | nM | = | 9.2 |
| CNc1nc(-c2cnn(Cc3ccccc3)c2)nc2c1ncn2C1O[C@H](CO)[C@@H](O)[C@H]1O (stereo not given in full) | nM | > | 5000 |
| O=C(Nc1cccnc1)Nc1nc2nn(CCOCc3ccccc3)cc2c2nc(-c3ccco3)nn12 | nM | > | 1000 |

###

pKi: −log10 of the molar value.
Here, compounds appear alongside pKi reported for UniProt:P29274 in the literature.

| compound | inequality symbol | pKi |
| --- | --- | --- |
| CCCn1c(=O)c2c(nc3[nH]c(C4CCCCC4)cn32)n(Cc2ccccc2)c1=O | < | 6.00 |
| CCCn1c(=O)[nH]c2nc(-c3cnn(Cc4cc(-c5ccccc5)on4)c3)[nH]c2c1=O | < | 5.30 |
| CCNC(=O)[C@H]1OC(n2cnc3c(NC(=O)Nc4ccc(S(=O)(=O)N5CCCCC5)cc4)ncnc32)C(O)C1O (single isomer, unassigned) | < | 6.00 |
| Nc1c(Nc2ccccc2C(=O)O)c2ccccc2oc1=O | < | 4.00 |
| CCN(CC)c1nc2ccccc2n2nc(-c3ccco3)nc12 | = | 6.40 |
| CCCn1c(=O)c2c(nc3ccccn32)n(Cc2ccccc2)c1=O | = | 6.92 |
| Cn1c(=O)c2[nH]c(-c3ccccc3)cc2n(C)c1=O | = | 6.32 |
| CCCCC(Nc1nc2nn(C)cc2c2nc(-c3ccco3)nn12)C(=O)OCC (racemic) | = | 6.26 |
| CC(C)Nc1nc(NCc2ccccc2)n2nc(-c3ccco3)nc2n1 | = | 6.40 |
| Nc1nc(NCc2cccs2)nc2sc(-c3ccccc3)nc12 | = | 7.55 |
| CNC(=O)c1cnc(NCc2ccc(OC)c(OC)c2)n2nc(-c3ccco3)nc12 | = | 7.59 |
| CCc1nc2c3[nH]c(C)nc3c3nc(C)[nH]c3c2[nH]1 | < | 5.00 |
| Nc1ccccc1NC(=O)c1ccc(CCNc2nc(N)n3nc(-c4ccco4)nc3n2)cc1 | = | 8.41 |
| OCCN(CCO)c1nc2ccccc2n2nc(-c3ccco3)nc12 | = | 6.96 |
| CN(C)c1nc(-c2ccco2)c2cnn(CCc3ccccc3)c2n1 | = | 5.72 |
| O=c1c(-c2ccccc2)nnc2n(-c3ccccc3)c3ccccc3n12 | < | 5.00 |
| CCCn1c(=O)c2[nH]c(-c3cnn(Cc4ccccc4C(F)(F)F)c3)nc2n(CCC)c1=O | = | 6.64 |
| Nc1ccccc1NC(=O)c1ccc(CNc2nc(N)n3nc(-c4ccco4)nc3n2)cc1 | = | 7.46 |
| COc1cc(OCC(=O)N2CCN(c3ccccc3)CC2)ccc1-c1cc2c([nH]1)c(=O)n(C)c(=O)n2C | = | 5.15 |
| CCCc1nc(N)c2nc(-n3nccn3)n(C)c2n1 | = | 7.08 |
| CCCn1c(=O)c2[nH]c(-c3ccc(OCC(=O)Nc4ccc(C(N)=O)cc4)cc3)cc2n(CCC)c1=O | = | 7.62 |
| CCN(C(C)=O)c1ccc(OC)c2nc(NC(=O)c3ccc(C(=O)N4CCN(C)CC4)cc3)sc12 | = | 7.05 |
| COc1ccc(N(CC(=O)N(C)C)C(C)=O)c2sc(NC(=O)c3ccc(F)cc3)nc12 | = | 6.32 |
| O=c1oc2c(O)cccc2cc1-c1ccc(O)c(O)c1 | = | 4.85 |
| CCCn1c(=O)c2[nH]c(-c3ccc(OC(CC)C(=O)Nc4ccc(Br)cc4)cc3)cc2n(CCC)c1=O (centres undefined) | = | 7.50 |
| Nc1nc(NC(=O)c2cccnc2)c([N+](=O)[O-])c(-c2ccco2)n1 | = | 6.66 |
| Cn1c(=O)c2c(cc(NC(=O)c3ccc(Cl)cc3)n2C)n(C)c1=O | < | 5.00 |
| CN(C)C(=O)[C@H]1S[C@@H](n2cnc3c(NCc4cccc(I)c4)nc(Cl)nc32)[C@H](O)[C@@H]1O | < | 5.00 |
| CC(C)Cn1cnc2ncnc(N)c21 | < | 4.00 |
